IC50 by entry:
# Study Target: human recombinant P2X7 receptor (Homo sapiens, UniProt Q99572)
# Construct: expressed in transfected cells
# Sequence (Q99572 whole entry): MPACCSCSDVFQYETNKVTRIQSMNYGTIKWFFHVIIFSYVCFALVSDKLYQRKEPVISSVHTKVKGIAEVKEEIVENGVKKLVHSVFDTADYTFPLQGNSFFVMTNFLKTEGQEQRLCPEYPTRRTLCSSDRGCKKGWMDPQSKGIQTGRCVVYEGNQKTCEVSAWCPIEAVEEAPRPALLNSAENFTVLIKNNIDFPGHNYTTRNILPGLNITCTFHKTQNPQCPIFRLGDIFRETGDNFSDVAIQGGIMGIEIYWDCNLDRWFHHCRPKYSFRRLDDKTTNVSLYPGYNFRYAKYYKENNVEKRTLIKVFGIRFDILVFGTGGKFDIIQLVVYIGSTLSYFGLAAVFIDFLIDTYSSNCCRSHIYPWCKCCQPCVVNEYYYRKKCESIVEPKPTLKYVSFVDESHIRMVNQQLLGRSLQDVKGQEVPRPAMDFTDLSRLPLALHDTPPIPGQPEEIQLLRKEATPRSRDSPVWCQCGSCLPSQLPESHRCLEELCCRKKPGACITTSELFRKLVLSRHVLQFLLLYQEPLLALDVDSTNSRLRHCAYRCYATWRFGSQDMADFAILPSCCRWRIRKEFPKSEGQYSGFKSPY
# Assay Info: YO-PRO assay: P2X7 receptor antagonistic activity in HEK cells stably expressing P2X7
# Format: cell-based
# Applied Conditions: antagonistic activity with respect to the P2X7 receptor, read-out: IC50
Outcome Measure: IC50 (nM)

>  <Compound>
CCc1cc(C(=O)NCC(c2cnc(C)nc2)N2CCOCC2)c(Cl)c2cc[nH]c12 (single isomer, unassigned) [Example 119]

>  <Study Target>
human recombinant P2X7 receptor (Homo sapiens, UniProt Q99572)

>  <Quantity Unit>
nM

>  <Readout Value>
16

$$$$
>  <Compound>
CC(C)(C)OC(=O)N1CCC(C(CNC(=O)c2ccc3[nH]ccc3c2Cl)c2cccnc2)CC1 (racemic) [Example 19]

>  <Study Target>
human recombinant P2X7 receptor (Homo sapiens, UniProt Q99572)

>  <Quantity Unit>
nM

>  <Readout Value>
35

$$$$
>  <Compound>
O=C(NCC(c1ccc(F)c(F)c1)N1CCCCC1)c1ccc2[nH]ccc2c1Cl (racemic) [Example 45]

>  <Study Target>
human recombinant P2X7 receptor (Homo sapiens, UniProt Q99572)

>  <Quantity Unit>
nM

>  <Readout Value>
83

$$$$
>  <Compound>
O=C(NCC(c1ccc(Cl)nc1)N1CCCCC1)c1ccc2[nH]ccc2c1Cl (racemic) [Example 56]

>  <Study Target>
human recombinant P2X7 receptor (Homo sapiens, UniProt Q99572)

>  <Quantity Unit>
nM

>  <Readout Value>
8.8

$$$$
>  <Compound>
CCc1c(C(=O)NCC(c2cnc(C)nc2)N2CCOCC2)ccc2[nH]ccc12 (racemic) [Example 101]

>  <Study Target>
human recombinant P2X7 receptor (Homo sapiens, UniProt Q99572)

>  <Quantity Unit>
nM

>  <Readout Value>
30

$$$$
>  <Compound>
Cc1ncc(C(CNC(=O)c2ccc3[nH]ccc3c2Cl)OC2CCCCC2)cn1 (racemic) [Example 69]

>  <Study Target>
human recombinant P2X7 receptor (Homo sapiens, UniProt Q99572)

>  <Quantity Unit>
nM

>  <Readout Value>
61

$$$$
>  <Compound>
O=C(NCC(c1cc(F)cc(F)c1)N1CCOCC1)c1ccc2[nH]ccc2c1Cl (racemic) [Example 18]

>  <Study Target>
human recombinant P2X7 receptor (Homo sapiens, UniProt Q99572)

>  <Quantity Unit>
nM

>  <Readout Value>
19

$$$$
>  <Compound>
Cc1ncc(C(CNC(=O)c2ccc3[nH]ccc3c2Cl)C2CCC(F)(F)CC2)cn1 (racemic) [Example 93]

>  <Study Target>
human recombinant P2X7 receptor (Homo sapiens, UniProt Q99572)

>  <Quantity Unit>
nM

>  <Readout Value>
12

$$$$
>  <Compound>
O=C(NCC(c1ccc(Cl)nc1)N1CCOCC1)c1ccc2[nH]ccc2c1Cl (racemic) [Example 24]

>  <Study Target>
human recombinant P2X7 receptor (Homo sapiens, UniProt Q99572)

>  <Quantity Unit>
nM

>  <Readout Value>
4.7

$$$$
>  <Compound>
Cc1ncc(C(CNC(=O)c2ccc3[nH]ccc3c2Cl)N2CCCC(F)(F)C2)cn1 (racemic) [Example 79]

>  <Study Target>
human recombinant P2X7 receptor (Homo sapiens, UniProt Q99572)

>  <Quantity Unit>
nM

>  <Readout Value>
9.3

$$$$
>  <Compound>
CC(C)CC(CNC(=O)c1ccc2[nH]ccc2c1Cl)c1ccc(Cl)nc1 (racemic) [Example 66]

>  <Study Target>
human recombinant P2X7 receptor (Homo sapiens, UniProt Q99572)

>  <Quantity Unit>
nM

>  <Readout Value>
32

$$$$
>  <Compound>
Cc1ncc(C(CNC(=O)c2cc(Cl)c3[nH]ccc3c2C)N2CCOCC2)cn1 (racemic) [Example 108]

>  <Study Target>
human recombinant P2X7 receptor (Homo sapiens, UniProt Q99572)

>  <Quantity Unit>
nM

>  <Readout Value>
11

$$$$
>  <Compound>
Cc1noc(C)c1C(CNC(=O)c1ccc2[nH]ccc2c1Cl)N1CCOCC1 (racemic) [Example 53]

>  <Study Target>
human recombinant P2X7 receptor (Homo sapiens, UniProt Q99572)

>  <Quantity Unit>
nM

>  <Readout Value>
1990

$$$$
>  <Compound>
Cc1ncc(C(CNC(=O)c2ccc3[nH]ccc3c2C)N2CCOCC2)cn1 (single isomer, unassigned) [Example 105]

>  <Study Target>
human recombinant P2X7 receptor (Homo sapiens, UniProt Q99572)

>  <Quantity Unit>
nM

>  <Readout Value>
20

$$$$
>  <Compound>
CCC(CC)C(CNC(=O)c1ccc2[nH]ccc2c1Cl)c1cncnc1 (racemic) [Example 88]

>  <Study Target>
human recombinant P2X7 receptor (Homo sapiens, UniProt Q99572)

>  <Quantity Unit>
nM

>  <Readout Value>
15

$$$$
